FYI, the data here is from patent US20130296311A1.

Tested on: HCV 1b_Huh-Luc/Neo-ET cell line persistently expressing a bicistronic genotype 1b replicon in Huh 7 cells
EXPERIMENTAL PROTOCOL: HCV replicon assay (luciferase readout, 72 h)
Type: cell-based, HCV genotype 1b
TEST PARAMETERS: Hepatitis C virus, Huh-7, 72 h, read-out: Inhibition of HCV genotype 1b
READOUT TYPE: EC50

The examples below pair each entry with its known result.
{"columns": ["COMPOUND", "EC50"],
 "data": [
  ["O=C(N[C@@H](C(=O)N1CCC[C@H]1c1nc(-c2ccc3cc(C#Cc4cnc([C@@H]5CCCN5C(=O)[C@H](NC(=O)N5CC[C@@H](O)C5)c5ccccc5)[nH]4)ccc3c2)c[nH]1)c1ccccc1)N1CC[C@@H](O)C1 [Compound 807]", "1 to 9.9 nM"],
  ["O=C(N[C@@H](C(=O)N1CCC[C@H]1c1ncc(C#Cc2ccc(-c3ccc(-c4cnc([C@@H]5CCCN5C(=O)[C@H](NC(=O)N5CCOCC5)c5ccccc5)[nH]4)cc3)cc2)[nH]1)c1ccccc1)N1CCOCC1 [Compound 761]", "< 1 nM"],
  ["COC(=O)N[C@H](C(=O)N[C@@H](C)c1ncc(-c2ccc(C#Cc3ccc4nc([C@H](C)NC(=O)[C@@H](NC(=O)OC)C(C)C)[nH]c4c3)cc2)[nH]1)C(C)C [Compound 868]", "< 1 nM"],
  ["C[C@H](NC(=O)[C@@H]1CCCN1C(=O)[C@H](NC(=O)C1CC1)c1ccccc1)c1ccc(C#Cc2cnc([C@@H]3CCCN3C(=O)[C@H](NC(=O)C3CC3)c3ccccc3)[nH]2)cc1 [Compound 132]", "10 to 999 nM"]
]}

The record that follows has no EC50 shown yet.
**Query** Would you kindly share the measured EC50 for CC(C)(C)OC(=O)N1CCC[C@H]1c1ncc(C#Cc2ccc(-c3cnc([C@@H]4CCCN4C(=O)OC(C)(C)C)[nH]3)cc2)[nH]1 [Compound 101] ?
**Result** 10 to 999 nM

====

Give measured pEC50 for each item. Keep answers brief.
Test system: HCV 1b_Huh-Luc/Neo-ET cell line persistently expressing a bicistronic genotype 1b replicon in Huh 7 cells
EXPERIMENTAL PROTOCOL: HCV replicon assay (luciferase readout, 72 h)
Assay type: cell-based, HCV genotype 1b
TEST PARAMETERS: Hepatitis C virus, Huh-7, 72 h, read-out: Inhibition of HCV genotype 1b
pEC50: −log10 of the molar value.

Worked examples follow.
{"columns": ["COMPOUND", "DATA VALUE"],
 "data": [
  ["COC(=O)N[C@H](C(=O)N1CCC[C@H]1c1ncc(-c2ccc(C#Cc3ccc4nc([C@@H]5CCCN5C(=O)[C@H](NC(=O)OC)c5ccccc5)[nH]c4c3)cc2)[nH]1)C(C)C [Compound 1023]", "> 9.00"],
  ["CN(C)[C@@H](C(=O)N1CCC[C@H]1c1ncc(C#Cc2ccc(-c3cnc([C@@H]4CCCN4C(=O)[C@H](NC(=O)C4CC4)c4ccccc4)[nH]3)cc2)[nH]1)c1ccccc1 [Compound 133]", "> 9.00"]
]}

**Query** // query pEC50 value for entry COC(=O)NC1(C(=O)N2CCC[C@H]2c2ncc(-c3ccc(C#Cc4ccc5nc([C@@H]6CCCN6C(=O)C6(NC(=O)OC)CCCC6)[nH]c5c4)cc3)[nH]2)CCCC1 [Compound 1044]
**Result** 6.00 to 8.00
